# assay remarks: xn = mol fraction of the nth substance listed
# setup conditions: 313.2 K, Ring tensiometer, x2 = 0.8
± gives the expanded uncertainty stated by the source.
What surface tension liquid-gas was measured for each of the following?

# molecule, surface tension liquid-gas
measured = [
    ("OCC(O)CO [glycerol] + CCCO", "24.2 ± 0.7 mN/m"),
]

Hi! Can you tell me surface tension liquid-gas for each of these molecules?
1. OCC(O)CO [glycerol] + CCO
2. OCC(O)CO [glycerol] + CCCCO
3. OCC(O)CO [glycerol] + CC(C)O

1: 23.5 ± 0.7 mN/m; 2: 24.5 ± 0.7 mN/m; 3: 21.8 ± 0.7 mN/m

---

# assay remarks: xn = mol fraction of the nth substance listed
# setup conditions: 323.2 K, Ring tensiometer, x2 = 0.3
value kind: surface tension liquid-gas (mN/m)
One number for each entry, in mN/m.

Field: example entries. Status: answers known.
# molecule, quantitative readout
data = [
    ("OCC(O)CO [glycerol] + CCCO", 28.9),
    ("OCC(O)CO [glycerol] + CCO", 35.4),
    ("OCC(O)CO [glycerol] + CCCCO", 25.6),
]

Kindly review the next molecule as well.
So what does the record say about surface tension liquid-gas for OCC(O)CO [glycerol] + CC(C)O ?
27.6

---

# assay remarks: xn = mol fraction of the nth substance listed
# setup conditions: 303.2 K, Ring tensiometer, x2 = 0.1
Give surface tension liquid-gas for every item shown.
One number for each entry, in mN/m.

Known surface tension liquid-gas results, listed for orientation:
# molecule, measurement unit, quantitative readout
measured = [
    ("OCC(O)CO [glycerol] + CCCCO", "mN/m", 32.9),
    ("OCC(O)CO [glycerol] + CCO", "mN/m", 52.4),
    ("OCC(O)CO [glycerol] + CCCO", "mN/m", 41.5),
]

Consider the molecule OCC(O)CO [glycerol] + CC(C)O and give its measured surface tension liquid-gas.
45.1

---

Record form. Attribute: surface tension liquid-gas. Fill in for each entry.
# assay remarks: xn = mol fraction of the nth substance listed
# setup conditions: 313.2 K, Ring tensiometer, x2 = 0.9
Give bare numbers, in mN/m.

Required: surface tension liquid-gas, one value per molecule below.
1. OCC(O)CO [glycerol] + CCCCO
2. OCC(O)CO [glycerol] + CCO

23.7
22.6

Kindly give each listed record's surface tension liquid-gas.
1. OCC(O)CO [glycerol] + CCCO
2. OCC(O)CO [glycerol] + CC(C)O

23.3
20.9

---

# assay remarks: xn = mol fraction of the nth substance listed
# setup conditions: 333.2 K, Ring tensiometer, x2 = 0.8
Please respond with reported surface tension liquid-gas for every item in the list.
Give bare numbers, in mN/m.

# molecule, measurement unit, surface tension liquid-gas
data = [
    ("OCC(O)CO [glycerol] + CCO", "mN/m", 22.1),
    ("OCC(O)CO [glycerol] + CC(C)O", "mN/m", 20.6),
]

# return surface tension liquid-gas for each item in the list
1. OCC(O)CO [glycerol] + CCCO
2. OCC(O)CO [glycerol] + CCCCO

1: 23; 2: 22.9

---

# assay remarks: xn = mol fraction of the nth substance listed
# setup conditions: 333.2 K, Ring tensiometer, x2 = 0.5
value kind: surface tension liquid-gas (mN/m)
One number for each entry, in mN/m.

Illustrative cases are given below, each with its answer.
# compound, measurement unit, surface tension liquid-gas
measured = [
    ("OCC(O)CO [glycerol] + CCO", "mN/m", 27.2),
    ("OCC(O)CO [glycerol] + CCCO", "mN/m", 25.6),
    ("OCC(O)CO [glycerol] + CC(C)O", "mN/m", 23.7),
]

Here is the next item to consider.
Entry OCC(O)CO [glycerol] + CCCCO has what surface tension liquid-gas?
24.3
